The reported numbers originate from ChEMBL document CHEMBL4219170.

Target: Tubulin (Homo sapiens) (UniProt P68371+Q9H4B7+P0DPH7+P68366+Q13509+Q71U36+P04350+Q3ZCM7+P07437+P68363+Q9BQE3+Q6PEY2+Q13885+Q9BVA1+Q9BUF5)
Experiment: Inhibition of tubulin polymerization (unknown origin) at 5 uM after 1 min in presence of GTP by fluorescence-based assay relative to control
Assay type: protein-complex assay
measured.metric: inhibition (%)
Just the number in %, nothing appended.

Query block: So what does the record say about inhibition for CC(C)(C)c1[nH]cnc1/C=c1\[nH]c(=O)/c(=C/c2cccc(C(=O)c3ccccn3)c2)[nH]c1=O ?
Result block: 36.6

Query block: Report inhibition for CC(C)(C)c1[nH]cnc1/C=c1\[nH]c(=O)/c(=C/c2cccc(C(=O)c3ccncc3)c2)[nH]c1=O please.
Result block: 34.1

Query block: May I ask what inhibition has been recorded for CC(C)(C)c1[nH]cnc1/C=c1\[nH]c(=O)/c(=C/c2ccccc2)[nH]c1=O ?
Result block: 18.3

Query block: Dear colleague, I am looking for the recorded inhibition of the following molecule: CC(C)(C)c1[nH]cnc1/C=c1\[nH]c(=O)/c(=C/c2cccc(C(=O)c3cncs3)c2)[nH]c1=O
Result block: 19.9

Query block: Entry CC(C)(C)c1[nH]cnc1/C=c1\[nH]c(=O)/c(=C/c2cccc(C(=O)c3cccnc3)c2)[nH]c1=O : reported inhibition = ?
Result block: 28.8

Query block: Any idea what inhibition was measured for CC(C)(C)c1[nH]cnc1/C=c1\[nH]c(=O)/c(=C/c2cccc(C(=O)c3ccsc3)c2)[nH]c1=O ?
Result block: 39.3

Query block: Any idea what its inhibition is? The molecule is CC(C)(C)c1[nH]cnc1/C=c1\[nH]c(=O)/c(=C/c2cccc(C(=O)c3cccs3)c2)[nH]c1=O
Result block: 46.4
